ASSAY_METHOD_TEXT: Single dose 300 mg / 450 mg pharmacokinetic, safety and tolerability study in healthy male and female subjects
SETUP_CONDITIONS: both, human, plasma, po, 450 mg

| COMPOUND | UNIT_ABBREV | concentration at 0.5 h |
| --- | --- | --- |
| O=C1NCC2(c3ccc(Cl)c(Cl)c3)CC12 (stereo not shown) [EB-10101] | ng/mL | 71 |

====

ASSAY_METHOD_TEXT: Brain and plasma levels of amitifadine and lactam metabolite EB-10101 in rat
Format: in vivo
SETUP_CONDITIONS: male, Sprague-Dawley, rat, brain and plasma; 10 mg/kg oral, 1 h; read-out: brain to plasma ratio
MEASUREMENT_TYPE: Kp at 1 h

| COMPOUND | MEASUREMENT_TYPE | MEASURED |
| --- | --- | --- |
| O=C1NCC2(c3ccc(Cl)c(Cl)c3)CC12 (stereo not shown) [EB-10101] | Kp at 1 h | 1.3 |

====

ASSAY_METHOD_TEXT: Single dose 300 mg / 450 mg pharmacokinetic, safety and tolerability study in healthy male and female subjects
SETUP_CONDITIONS: both, human, plasma, oral, 450 mg, harmonic mean of half-life of lactam

| MOLECULE | UNIT_ABBREV | half-life |
| --- | --- | --- |
| O=C1NCC2(c3ccc(Cl)c(Cl)c3)CC12 (stereo not shown) | h | 19.8 |

====

ASSAY_METHOD_TEXT: 2-week rat toxicology and toxicokinetic study
Assay type: in vivo
SETUP_CONDITIONS: male, Crl:CD(SD)IGS BR, rat, in vivo, po, 10 mg/kg/day, males, 10 mg/kg/day, Day 0

| MOLECULE | UNIT_ABBREV | Tmax |
| --- | --- | --- |
| Clc1ccc([C@]23CNC[C@H]2C3)cc1Cl [amitifadine] | h | 1 |

====

ASSAY_METHOD_TEXT: 2-week rat toxicology and toxicokinetic study
Format: in vivo
SETUP_CONDITIONS: male, Crl:CD (SD)IGS BR, rat, in vivo, po, 10 mg/kg/day, males, 10 mg/kg/day, Day 13

| GIVEN_SMILES | Cmax / ng/mL |
| --- | --- |
| Clc1ccc([C@]23CNC[C@H]2C3)cc1Cl | 878 |

====

ASSAY_METHOD_TEXT: 13-week dog toxicity and toxicokinetic study
Type: in vivo
SETUP_CONDITIONS: female, beagle, dog, in vivo, po, 20 mg/kg/day, females, 20 mg/kg/day, Day 86

| COMPOUND | Cmax [ng/mL] |
| --- | --- |
| Clc1ccc([C@]23CNC[C@H]2C3)cc1Cl [amitifadine] | 8430 |

====

ASSAY_METHOD_TEXT: 13-week dog toxicity and toxicokinetic study
Type: in vivo
SETUP_CONDITIONS: female, beagle, dog, in vivo, po, 6 mg/kg/day, females, 6 mg/kg/day, Day 86

| MOLECULE | Tmax (h) |
| --- | --- |
| Clc1ccc([C@]23CNC[C@H]2C3)cc1Cl [amitifadine] | 1 |

====

ASSAY_METHOD_TEXT: 13-week rat toxicity and toxicokinetic study
Format: in vivo
SETUP_CONDITIONS: male, Crl:CD(SD)IGS BR, rat, in vivo, po, 10 mg/kg/day, males, 10 mg/kg/day, Day 0

| COMPOUND | Cmax [ng/mL] |
| --- | --- |
| Clc1ccc([C@]23CNC[C@H]2C3)cc1Cl [amitifadine] | 863 |

====

ASSAY_METHOD_TEXT: Single dose 300 mg / 450 mg pharmacokinetic, safety and tolerability study in healthy male and female subjects
SETUP_CONDITIONS: male, human, plasma, po, 300 mg
MEASUREMENT_TYPE: AUC(0-inf) (ng·h/mL)

| GIVEN_SMILES | UNIT_ABBREV | MEASURED |
| --- | --- | --- |
| Clc1ccc([C@]23CNC[C@H]2C3)cc1Cl | ng·h/mL | 19000 |

====

ASSAY_METHOD_TEXT: Single rising oral dose (10-150 mg IR) safety, tolerance and pharmacokinetics in healthy male volunteers
Assay type: in vivo, human
SETUP_CONDITIONS: male, human, plasma, oral, 10 mg, Geometric Mean; read-out: AUC0-t

| MOLECULE | UNIT_ABBREV | AUC(0-t) |
| --- | --- | --- |
| Clc1ccc([C@]23CNC[C@H]2C3)cc1Cl [amitifadine] | ng·h/mL | 377 |

====

ASSAY_METHOD_TEXT: 12-month dog toxicity and toxicokinetic study
Assay type: in vivo
SETUP_CONDITIONS: female, beagle, dog, plasma, po, 2 mg/kg/day, females, 2 mg/kg/day, Day 358
MEASUREMENT_TYPE: Tmax (h)

| COMPOUND | MEASURED |
| --- | --- |
| Clc1ccc([C@]23CNC[C@H]2C3)cc1Cl [amitifadine] | 1 |

====

ASSAY_METHOD_TEXT: 12-month dog toxicity and toxicokinetic study
Assay type: in vivo
SETUP_CONDITIONS: female, beagle, dog, plasma, po, 20 mg/kg/day, females, 20 (15) mg/kg/day, Day 0

| COMPOUND | Tmax, h |
| --- | --- |
| Clc1ccc([C@]23CNC[C@H]2C3)cc1Cl [amitifadine] | 1 |

====

ASSAY_METHOD_TEXT: Single dose 300 mg / 450 mg pharmacokinetic, safety and tolerability study in healthy male and female subjects
SETUP_CONDITIONS: male, human, plasma, po, 450 mg
MEASUREMENT_TYPE: concentration at 6 h (ng/mL)

| COMPOUND | MEASUREMENT_TYPE | UNIT_ABBREV | MEASURED |
| --- | --- | --- | --- |
| O=C1NCC2(c3ccc(Cl)c(Cl)c3)CC12 (stereo not shown) [EB-10101] | concentration at 6 h | ng/mL | 2320 |

====

ASSAY_METHOD_TEXT: 13-week rat toxicity and toxicokinetic study
Format: in vivo
SETUP_CONDITIONS: male, Crl:CD(SD)IGS BR, rat, in vivo, oral, 10 mg/kg/day, males, 10 mg/kg/day, Day 87; read-out: AUC0-24

| GIVEN_SMILES | AUC(0-t) (ng·h/mL) |
| --- | --- |
| Clc1ccc([C@]23CNC[C@H]2C3)cc1Cl | 8130 |

====

ASSAY_METHOD_TEXT: Multiple-dose safety and PK study 25 mg BID and 50 mg BID for 10 days
Type: in vivo, human
SETUP_CONDITIONS: male, human, in vivo, 25 mg, 25 mg BID; Day 10; healthy male subjects; mean (SD)

| GIVEN_SMILES | Tmax |
| --- | --- |
| Clc1ccc([C@]23CNC[C@H]2C3)cc1Cl | 1.07 h |

====

ASSAY_METHOD_TEXT: 13-week mouse toxicity and toxicokinetic study
SETUP_CONDITIONS: female, Crl:CD-1(ICR) BR, in vivo, po, 10 mg/kg/day, Tmax
Description: For toxicology assessment ten mice of each gender were placed in each group. Ophthalmic examinations were performed during Weeks −1 and 12.

| GIVEN_SMILES | UNIT_ABBREV | Tmax |
| --- | --- | --- |
| Clc1ccc([C@]23CNC[C@H]2C3)cc1Cl | h | 1 |

====

ASSAY_METHOD_TEXT: Single dose 300 mg / 450 mg pharmacokinetic, safety and tolerability study in healthy male and female subjects
SETUP_CONDITIONS: female, human, plasma, po, 450 mg

| GIVEN_SMILES | AUC(0-inf) |
| --- | --- |
| Clc1ccc([C@]23CNC[C@H]2C3)cc1Cl | 29900 ng·h/mL |

====

ASSAY_METHOD_TEXT: 12-month dog toxicity and toxicokinetic study
Type: in vivo
SETUP_CONDITIONS: female, beagle, dog, plasma, po, 20 mg/kg/day, females, 20 (15) mg/kg/day, Day 0
MEASUREMENT_TYPE: Cmax (ng/mL)

| GIVEN_SMILES | MEASURED |
| --- | --- |
| Clc1ccc([C@]23CNC[C@H]2C3)cc1Cl | 6880 |

====

ASSAY_METHOD_TEXT: Rat developmental toxicity study with toxicokinetics
Assay type: in vivo
SETUP_CONDITIONS: female, Crl:CD(SD)IGS BR, rat, in vivo, po, 10 mg/kg/day, pregnant rats, 10 mg/kg/day, GD 6; read-out: AUC0-24
MEASUREMENT_TYPE: AUC(0-t) (ng·h/mL)

| COMPOUND | MEASURED |
| --- | --- |
| Clc1ccc([C@]23CNC[C@H]2C3)cc1Cl [amitifadine] | 10900 |
